Biological target: LRRK2 (Homo sapiens, UniProt Q5S007)
Sequence (Q5S007 whole entry): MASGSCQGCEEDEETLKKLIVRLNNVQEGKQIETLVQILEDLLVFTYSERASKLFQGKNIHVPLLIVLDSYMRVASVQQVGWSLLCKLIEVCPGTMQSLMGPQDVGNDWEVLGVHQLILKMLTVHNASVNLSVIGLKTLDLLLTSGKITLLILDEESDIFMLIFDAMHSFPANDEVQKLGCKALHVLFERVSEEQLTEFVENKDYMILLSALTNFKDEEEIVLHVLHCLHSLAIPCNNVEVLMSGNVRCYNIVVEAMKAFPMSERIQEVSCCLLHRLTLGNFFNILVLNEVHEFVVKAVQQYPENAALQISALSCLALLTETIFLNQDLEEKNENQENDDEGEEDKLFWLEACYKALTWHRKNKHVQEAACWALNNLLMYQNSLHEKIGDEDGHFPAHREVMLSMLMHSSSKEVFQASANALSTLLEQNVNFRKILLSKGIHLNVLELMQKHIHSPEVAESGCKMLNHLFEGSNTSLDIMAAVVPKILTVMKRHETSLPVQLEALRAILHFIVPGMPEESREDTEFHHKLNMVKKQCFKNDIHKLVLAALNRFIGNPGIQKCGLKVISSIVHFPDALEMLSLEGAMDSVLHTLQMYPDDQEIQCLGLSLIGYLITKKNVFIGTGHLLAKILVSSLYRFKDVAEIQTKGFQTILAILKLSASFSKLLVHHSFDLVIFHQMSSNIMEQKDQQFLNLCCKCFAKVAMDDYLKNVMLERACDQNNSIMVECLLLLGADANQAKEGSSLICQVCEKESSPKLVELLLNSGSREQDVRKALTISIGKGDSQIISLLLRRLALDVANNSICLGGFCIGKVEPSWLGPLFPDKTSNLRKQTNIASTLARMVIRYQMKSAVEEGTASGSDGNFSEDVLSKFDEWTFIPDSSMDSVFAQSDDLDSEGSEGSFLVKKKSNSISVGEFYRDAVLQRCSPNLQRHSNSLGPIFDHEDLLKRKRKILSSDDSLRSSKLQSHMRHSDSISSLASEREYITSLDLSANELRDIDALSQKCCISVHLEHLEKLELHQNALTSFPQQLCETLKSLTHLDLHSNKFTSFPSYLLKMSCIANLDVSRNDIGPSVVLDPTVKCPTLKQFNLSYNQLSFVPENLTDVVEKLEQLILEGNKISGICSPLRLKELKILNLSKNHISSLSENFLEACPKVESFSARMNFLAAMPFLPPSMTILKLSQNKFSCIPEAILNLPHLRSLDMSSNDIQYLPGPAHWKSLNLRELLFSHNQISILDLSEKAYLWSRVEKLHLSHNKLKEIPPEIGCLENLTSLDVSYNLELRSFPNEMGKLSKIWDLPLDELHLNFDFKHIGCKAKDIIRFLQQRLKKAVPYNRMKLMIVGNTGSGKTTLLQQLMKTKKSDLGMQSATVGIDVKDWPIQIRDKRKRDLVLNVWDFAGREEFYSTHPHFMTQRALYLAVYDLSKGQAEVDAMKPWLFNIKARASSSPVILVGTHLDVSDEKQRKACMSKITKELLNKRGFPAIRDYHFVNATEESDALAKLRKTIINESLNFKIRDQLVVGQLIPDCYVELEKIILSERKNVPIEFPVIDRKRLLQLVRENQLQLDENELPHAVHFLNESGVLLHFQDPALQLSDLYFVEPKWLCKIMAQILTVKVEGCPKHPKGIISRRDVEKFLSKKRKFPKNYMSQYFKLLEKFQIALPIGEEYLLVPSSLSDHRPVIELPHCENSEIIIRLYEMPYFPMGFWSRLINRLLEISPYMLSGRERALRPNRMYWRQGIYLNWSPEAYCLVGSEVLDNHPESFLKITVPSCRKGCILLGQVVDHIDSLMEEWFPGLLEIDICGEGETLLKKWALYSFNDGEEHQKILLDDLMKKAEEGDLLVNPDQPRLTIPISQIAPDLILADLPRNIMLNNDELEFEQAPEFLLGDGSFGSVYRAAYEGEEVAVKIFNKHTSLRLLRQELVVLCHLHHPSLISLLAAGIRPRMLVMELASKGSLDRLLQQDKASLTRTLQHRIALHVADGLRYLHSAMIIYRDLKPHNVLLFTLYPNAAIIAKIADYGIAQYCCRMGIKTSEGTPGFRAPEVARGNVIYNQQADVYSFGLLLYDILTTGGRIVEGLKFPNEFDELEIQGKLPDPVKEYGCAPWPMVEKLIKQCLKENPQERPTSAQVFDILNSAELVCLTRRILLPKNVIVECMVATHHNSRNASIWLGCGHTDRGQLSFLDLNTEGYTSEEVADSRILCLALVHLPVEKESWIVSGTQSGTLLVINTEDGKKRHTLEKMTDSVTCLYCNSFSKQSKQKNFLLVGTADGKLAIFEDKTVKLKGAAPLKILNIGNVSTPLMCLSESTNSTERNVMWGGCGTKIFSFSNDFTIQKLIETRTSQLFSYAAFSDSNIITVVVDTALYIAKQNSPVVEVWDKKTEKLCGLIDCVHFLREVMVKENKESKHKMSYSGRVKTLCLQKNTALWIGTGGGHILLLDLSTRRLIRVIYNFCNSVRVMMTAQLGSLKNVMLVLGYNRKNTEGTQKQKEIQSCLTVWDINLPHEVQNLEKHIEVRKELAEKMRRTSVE
pIC50: −log10 of the molar value.
Recorded endpoint: pIC50

Compound	Endpoint result
CCOC(=O)c1cnc2[nH]ccc2c1N[C@@H]1CCCN(C(=O)CC#N)C1 [ATI-1777]	7.32

###

Assay: Metabolic stability in liver microsomes
Format: in vitro ADME
Settings: minipig, T1/2, Study 2, n = 1
Recorded endpoint: half-life

Compound	Recorded endpoint	Endpoint result
CCOC(=O)c1cnc2[nH]ccc2c1N[C@@H]1CCCN(C(=O)CC#N)C1 [ATI-1777]	half-life	5 min

###

Assay: Metabolic stability in liver microsomes
Assay type: in vitro ADME
Conditions: human
Recorded endpoint: microsomal CLint (µL/min/mg)

Compound	Recorded endpoint	Endpoint result
CCOC(=O)c1cnc2[nH]ccc2c1N[C@@H]1CCCN(C(=O)CC#N)C1 [ATI-1777]	microsomal CLint	74

###

Test: 28-day minipig repeat exposure study: toxicokinetics
Type: in vivo
Details: both, plasma, topical, 160 mg/day
Recorded endpoint: concentration at 12 h (ng/mL)

Smiles code	Recorded endpoint	Endpoint result
CCOC(=O)c1cnc2[nH]ccc2c1N[C@@H]1CCCN(C(=O)CC#N)C1	concentration at 12 h	1.02

###

Experiment: Metabolic stability in liver microsomes
Format: in vitro ADME
Details: dog

Smiles code	microsomal CLint / µL/min/mg
CCOC(=O)c1cnc2[nH]ccc2c1N[C@@H]1CCCN(C(=O)CC#N)C1	46

###

Experiment: 28-day minipig repeat exposure study: toxicokinetics
Format: in vivo
Conditions: both, plasma, topical, 40 mg/day

Smiles code	concentration at 2 h
CCOC(=O)c1cnc2[nH]ccc2c1N[C@@H]1CCCN(C(=O)CC#N)C1	0.108 ng/mL

###

Assay: 28-day minipig repeat exposure study: toxicokinetics
Type: in vivo
Conditions: both, plasma, topical, 40 mg/day

Compound	concentration at 12 h / ng/mL
CCOC(=O)c1cnc2[nH]ccc2c1N[C@@H]1CCCN(C(=O)CC#N)C1 [ATI-1777]	0

###

Assay: Metabolic stability in liver microsomes
Assay type: in vitro ADME
Conditions: minipig

Smiles code	microsomal CLint (µL/min/mg)
CCOC(=O)c1cnc2[nH]ccc2c1N[C@@H]1CCCN(C(=O)CC#N)C1	295

###

Test: Metabolic stability in liver microsomes
Type: in vitro ADME
Details: minipig, T1/2, Study 1, n = 1

Smiles code	Measure unit	half-life
CCOC(=O)c1cnc2[nH]ccc2c1N[C@@H]1CCCN(C(=O)CC#N)C1	min	2.85

###

Experiment: Metabolic stability in liver microsomes
Type: in vitro ADME
Conditions: minipig

Smiles code	CLint scaled [mL/min/kg]
CCOC(=O)c1cnc2[nH]ccc2c1N[C@@H]1CCCN(C(=O)CC#N)C1	365

###

Tested on: Jak1/3
Assay: Inhibition of IL-2-induced STAT phosphorylation in PBMCs
Format: cell-based, human
Conditions: Homo sapiens, PBMC, read-out: IC50 Mean ± SD
pIC50: −log10 of the molar value.

Molecule	pIC50
CCOC(=O)c1cnc2[nH]ccc2c1N[C@@H]1CCCN(C(=O)CC#N)C1 [ATI-1777]	7.72

###

Assay: 7-day minipig study: plasma pharmacokinetics
Type: in vivo
Conditions: male, plasma, topical, 160 mg/day

Compound	Measure unit	concentration at 8 h
CCOC(=O)c1cnc2[nH]ccc2c1N[C@@H]1CCCN(C(=O)CC#N)C1 [ATI-1777]	ng/mL	0.391

###

Target: TYK2 (Homo sapiens)
Sequence (P29597 897-1176 limits assumed): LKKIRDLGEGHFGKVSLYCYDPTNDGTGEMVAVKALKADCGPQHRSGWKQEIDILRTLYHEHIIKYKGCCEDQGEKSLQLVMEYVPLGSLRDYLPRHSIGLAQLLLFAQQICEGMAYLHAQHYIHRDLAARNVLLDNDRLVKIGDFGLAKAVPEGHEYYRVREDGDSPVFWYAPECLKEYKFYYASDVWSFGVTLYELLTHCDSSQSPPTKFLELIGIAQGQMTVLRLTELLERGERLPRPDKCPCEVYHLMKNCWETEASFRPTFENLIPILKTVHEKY
Recorded endpoint: IC50 (nM)

Smiles code	Endpoint result
CCOC(=O)c1cnc2[nH]ccc2c1N[C@@H]1CCCN(C(=O)CC#N)C1	19

###

Assay: 7-day minipig study: plasma pharmacokinetics
Format: in vivo
Conditions: male, plasma, topical, 160 mg/day

Molecule	Measure unit	concentration at 2 h
CCOC(=O)c1cnc2[nH]ccc2c1N[C@@H]1CCCN(C(=O)CC#N)C1 [ATI-1777]	ng/mL	0.387

###

Molecular target: MARK1 (Homo sapiens)
Sequence (Q9P0L2 whole entry): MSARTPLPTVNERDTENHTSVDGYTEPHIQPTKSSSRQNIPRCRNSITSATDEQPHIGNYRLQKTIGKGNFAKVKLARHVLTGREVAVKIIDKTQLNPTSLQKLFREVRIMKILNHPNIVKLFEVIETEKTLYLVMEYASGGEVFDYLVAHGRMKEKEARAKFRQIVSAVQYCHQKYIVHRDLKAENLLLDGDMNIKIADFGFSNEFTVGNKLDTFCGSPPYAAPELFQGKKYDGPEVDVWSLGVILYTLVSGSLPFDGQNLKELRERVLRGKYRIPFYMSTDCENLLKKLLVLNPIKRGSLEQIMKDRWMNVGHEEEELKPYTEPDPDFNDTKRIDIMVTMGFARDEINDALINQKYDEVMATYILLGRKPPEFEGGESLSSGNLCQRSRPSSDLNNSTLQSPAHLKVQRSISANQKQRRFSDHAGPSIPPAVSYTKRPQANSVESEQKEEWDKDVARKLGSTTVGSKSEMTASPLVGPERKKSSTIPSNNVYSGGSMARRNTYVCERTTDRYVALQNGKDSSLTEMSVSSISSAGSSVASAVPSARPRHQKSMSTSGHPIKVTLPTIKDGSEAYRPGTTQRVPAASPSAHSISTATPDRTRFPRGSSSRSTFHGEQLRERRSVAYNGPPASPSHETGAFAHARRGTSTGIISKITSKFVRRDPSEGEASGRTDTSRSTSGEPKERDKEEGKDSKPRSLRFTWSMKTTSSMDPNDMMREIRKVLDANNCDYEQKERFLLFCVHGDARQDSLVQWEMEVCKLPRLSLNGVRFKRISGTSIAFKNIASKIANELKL
Recorded endpoint: IC50 (nM)

Smiles code	Endpoint result
CCOC(=O)c1cnc2[nH]ccc2c1N[C@@H]1CCCN(C(=O)CC#N)C1	1250

###

Test: Metabolic stability in liver microsomes
Assay type: in vitro ADME
Settings: dog, T1/2, Study 1, n = 1

Smiles code	half-life
CCOC(=O)c1cnc2[nH]ccc2c1N[C@@H]1CCCN(C(=O)CC#N)C1	17.4 min

###

Molecular target: Aurora A (Homo sapiens, UniProt O14965)
Sequence (O14965 whole entry): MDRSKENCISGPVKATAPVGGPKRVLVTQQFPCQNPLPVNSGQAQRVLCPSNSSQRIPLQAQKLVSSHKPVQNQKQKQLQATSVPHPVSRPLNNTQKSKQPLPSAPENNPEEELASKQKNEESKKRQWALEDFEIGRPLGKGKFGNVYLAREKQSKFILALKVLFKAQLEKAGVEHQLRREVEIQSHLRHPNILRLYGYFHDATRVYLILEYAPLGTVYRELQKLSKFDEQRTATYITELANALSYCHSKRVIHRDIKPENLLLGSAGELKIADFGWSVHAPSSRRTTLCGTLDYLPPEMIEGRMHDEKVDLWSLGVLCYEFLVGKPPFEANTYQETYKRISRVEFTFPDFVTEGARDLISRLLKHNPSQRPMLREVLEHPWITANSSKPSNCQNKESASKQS
pIC50: −log10 of the molar value.

Smiles code	pIC50
CCOC(=O)c1cnc2[nH]ccc2c1N[C@@H]1CCCN(C(=O)CC#N)C1	6.19

###

Assay: 28-day minipig repeat exposure study: toxicokinetics
Assay type: in vivo
Details: both, plasma, topical, 160 mg/day

Smiles code	concentration at 4 h
CCOC(=O)c1cnc2[nH]ccc2c1N[C@@H]1CCCN(C(=O)CC#N)C1	0.755 ng/mL

###

Assay: 28-day minipig repeat exposure study: toxicokinetics
Format: in vivo
Settings: both, plasma, topical, 160 mg/day
Recorded endpoint: concentration at 2 h (ng/mL)

Smiles code	Endpoint result
CCOC(=O)c1cnc2[nH]ccc2c1N[C@@H]1CCCN(C(=O)CC#N)C1	1.12

###

Assay: 28-day minipig repeat exposure study: toxicokinetics
Format: in vivo
Settings: both, plasma, topical, 80 mg/day

Smiles code	Measure unit	concentration at 0.5 h
CCOC(=O)c1cnc2[nH]ccc2c1N[C@@H]1CCCN(C(=O)CC#N)C1	ng/mL	0.647

###

Test: Metabolic stability in liver microsomes
Format: in vitro ADME
Conditions: human

Smiles code	Measure unit	CLint scaled
CCOC(=O)c1cnc2[nH]ccc2c1N[C@@H]1CCCN(C(=O)CC#N)C1	mL/min/kg	200

###

Experiment: Metabolic stability in liver microsomes
Format: in vitro ADME
Conditions: monkey

Smiles code	CLint scaled [mL/min/kg]
CCOC(=O)c1cnc2[nH]ccc2c1N[C@@H]1CCCN(C(=O)CC#N)C1	939

###

Assay: 28-day minipig repeat exposure study: toxicokinetics
Assay type: in vivo
Details: both, plasma, topical, 80 mg/day
Recorded endpoint: concentration at 24 h (ng/mL)

Molecule	Endpoint result
CCOC(=O)c1cnc2[nH]ccc2c1N[C@@H]1CCCN(C(=O)CC#N)C1 [ATI-1777]	0

###

Experiment: 28-day minipig repeat exposure study: toxicokinetics
Format: in vivo
Conditions: both, plasma, topical, 40 mg/day

Compound	concentration at 8 h
CCOC(=O)c1cnc2[nH]ccc2c1N[C@@H]1CCCN(C(=O)CC#N)C1 [ATI-1777]	0 ng/mL

###

Assay: Metabolic stability in liver microsomes
Type: in vitro ADME
Settings: monkey
Recorded endpoint: microsomal CLint (µL/min/mg)

Smiles code	Measure unit	Endpoint result
CCOC(=O)c1cnc2[nH]ccc2c1N[C@@H]1CCCN(C(=O)CC#N)C1	µL/min/mg	264

###

Molecular target: UniProt:P35916
Sequence (P35916 25-1363): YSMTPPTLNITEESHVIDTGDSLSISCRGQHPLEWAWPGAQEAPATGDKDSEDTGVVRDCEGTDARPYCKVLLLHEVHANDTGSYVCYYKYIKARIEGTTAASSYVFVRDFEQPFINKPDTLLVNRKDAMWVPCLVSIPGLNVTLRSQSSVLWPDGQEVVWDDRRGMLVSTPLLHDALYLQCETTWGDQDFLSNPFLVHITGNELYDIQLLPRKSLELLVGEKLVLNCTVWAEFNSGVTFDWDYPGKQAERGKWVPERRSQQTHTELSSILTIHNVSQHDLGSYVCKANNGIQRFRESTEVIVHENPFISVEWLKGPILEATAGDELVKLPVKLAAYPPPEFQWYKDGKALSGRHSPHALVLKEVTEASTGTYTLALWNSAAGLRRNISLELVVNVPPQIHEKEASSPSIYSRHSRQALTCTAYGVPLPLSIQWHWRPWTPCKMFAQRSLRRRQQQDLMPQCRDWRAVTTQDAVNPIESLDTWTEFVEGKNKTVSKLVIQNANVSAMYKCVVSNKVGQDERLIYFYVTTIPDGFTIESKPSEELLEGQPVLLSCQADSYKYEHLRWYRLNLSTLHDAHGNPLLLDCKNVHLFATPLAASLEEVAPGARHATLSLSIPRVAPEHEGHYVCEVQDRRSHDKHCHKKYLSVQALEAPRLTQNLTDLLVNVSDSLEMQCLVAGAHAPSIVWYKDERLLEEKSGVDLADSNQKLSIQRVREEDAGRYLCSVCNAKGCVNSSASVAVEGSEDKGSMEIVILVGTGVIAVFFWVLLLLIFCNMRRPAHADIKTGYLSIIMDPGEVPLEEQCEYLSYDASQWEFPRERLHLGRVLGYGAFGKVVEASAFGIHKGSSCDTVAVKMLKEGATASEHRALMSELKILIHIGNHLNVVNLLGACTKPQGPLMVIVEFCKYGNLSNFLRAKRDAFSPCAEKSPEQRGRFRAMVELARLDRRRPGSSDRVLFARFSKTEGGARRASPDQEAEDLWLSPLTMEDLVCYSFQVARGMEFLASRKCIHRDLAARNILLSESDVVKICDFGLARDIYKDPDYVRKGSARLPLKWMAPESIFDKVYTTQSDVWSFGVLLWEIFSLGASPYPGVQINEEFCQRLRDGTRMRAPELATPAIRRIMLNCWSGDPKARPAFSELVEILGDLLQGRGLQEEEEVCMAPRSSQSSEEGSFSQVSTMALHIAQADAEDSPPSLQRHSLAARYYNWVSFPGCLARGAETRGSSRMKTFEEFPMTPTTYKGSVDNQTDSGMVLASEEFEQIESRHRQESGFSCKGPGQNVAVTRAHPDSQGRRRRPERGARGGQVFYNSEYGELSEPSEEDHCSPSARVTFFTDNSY
pIC50: −log10 of the molar value.

Molecule	pIC50
CCOC(=O)c1cnc2[nH]ccc2c1N[C@@H]1CCCN(C(=O)CC#N)C1 [ATI-1777]	6.95

###

Experiment: 28-day minipig repeat exposure study: toxicokinetics
Type: in vivo
Settings: both, plasma, topical, 80 mg/day
Recorded endpoint: concentration at 0 h (ng/mL)

Smiles code	Measure unit	Endpoint result
CCOC(=O)c1cnc2[nH]ccc2c1N[C@@H]1CCCN(C(=O)CC#N)C1	ng/mL	0.118

###

Experiment: 28-day minipig repeat exposure study: toxicokinetics
Assay type: in vivo
Conditions: both, plasma, topical, 160 mg/day

Smiles code	concentration at 8 h / ng/mL
CCOC(=O)c1cnc2[nH]ccc2c1N[C@@H]1CCCN(C(=O)CC#N)C1	0.684

###

Test: 28-day minipig repeat exposure study: toxicokinetics
Format: in vivo
Conditions: both, plasma, topical, 40 mg/day

Smiles code	Measure unit	concentration at 4 h
CCOC(=O)c1cnc2[nH]ccc2c1N[C@@H]1CCCN(C(=O)CC#N)C1	ng/mL	0.121

###

Experiment: 28-day minipig repeat exposure study: toxicokinetics
Format: in vivo
Details: both, plasma, topical, 40 mg/day
Recorded endpoint: concentration at 0 h

Smiles code	Recorded endpoint	Endpoint result
CCOC(=O)c1cnc2[nH]ccc2c1N[C@@H]1CCCN(C(=O)CC#N)C1	concentration at 0 h	0.34 ng/mL
